Tested on: CAKI-1
Experiment: NCI tumour cell line growth inhibition, 48 h
Activity calls are given as the source filed them. Cut-off read from the data, not from the text of the source: active = GI50 up to about 1.1 µM and inactive = higher.
Kindly state GI50 for each of the entries shown.

{"COMPOUND": "CCCNc1[nH]c(C(C)=O)c(N)c1C(=S)Nc1ccccc1", "GI50": "46.8 µM (inactive)"}
{"COMPOUND": "N#CC1CC2(C(=O)C1=O)c1ccccc1-c1ccccc12 (stereo not given)", "GI50": "> 100 µM (inactive)"}
{"COMPOUND": "CCCCCC/C(CC(=O)CCC(=O)NCCc1ccccc1)=N\\Nc1ccc([N+](=O)[O-])cc1[N+](=O)[O-]", "GI50": "> 100 µM (inactive)"}
{"COMPOUND": "Cc1[nH]c(=O)[nH]c(=O)c1/C=C/C(=O)NC(CO)CC(C)C (stereo not given)", "GI50": "146 µM (inactive)"}

Attention now turns to another entry.
Task item: Reported GI50 for CAKI-1, given "CN(C)c1ncc(-c2c[nH]c3ccccc23)nc1-c1c[nH]c2ccccc12" ?
Reply: 3.47 µM (inactive)

* * *

Test system: BT-549
Assay: NCI tumour cell line growth inhibition, 48 h
Activity calls are given as the source filed them. Rule as the data show it: active = GI50 up to about 1.1 µM and inactive = higher.
OUTCOME_MEASURE: GI50

Completed entries (count: 4):
{"COMPOUND": "Cc1nc(/C(=N\\n2cnnc2)Nc2ccc(Br)cc2)no1", "GI50": "> 100 µM (inactive)"}
{"COMPOUND": "Cc1ccc(S(=O)(=O)NC(CN)C(=O)O)cc1 (stereo not given)", "GI50": "> 100 µM (inactive)"}
{"COMPOUND": "CCc1n[nH]c(=O)n1CC", "GI50": "> 100 µM (inactive)"}
{"COMPOUND": "C=C(CC[C@@H](C)[C@H]1CC[C@H]2[C@@H]3C[C@@H](O)[C@H]4C[C@@H](O)CC[C@]4(CO)[C@H]3CC[C@]12C)C(C)C", "GI50": "8.09 µM (inactive)"}

Attention now turns to another entry.
Task item: May I ask what GI50 has been recorded for CCOC(=O)C(C)c1nc2cc(F)c(F)cc2[nH]c1=O (stereo not given) ?
Reply: > 100 µM (inactive)

* * *

System: NCI-H522
Assay: NCI tumour cell line growth inhibition, 48 h
Activity calls are given as the source filed them. No stated cut-off is given here; in the data, active = GI50 up to about 1.1 µM and inactive = higher.
// allowed return values: Y for active, N for inactive

{"COMPOUND": "CC(=O)N(CCCCNC(=O)C(F)(F)F)CCCNC(=O)C(F)(F)F", "CLASS_NAME": "N"}
{"COMPOUND": "CC(C)CC1N=C(OCc2ccccc2)OC1=O (configuration not stated)", "CLASS_NAME": "N"}
{"COMPOUND": "CCOC(=O)c1ccc(/N=C/C=C(\\Nc2ccc(C(=O)OCC)cc2)C23CC4CC(CC(C4)C2)C3)cc1", "CLASS_NAME": "N"}
{"COMPOUND": "O=c1oc2ccccc2cc1-c1cn2c(n1)sc1ccccc12", "CLASS_NAME": "N"}
{"COMPOUND": "C[N+](C)(C)c1ncnc2c1ncn2C1CCCO1 (configuration not stated)", "CLASS_NAME": "N"}

Task item: State the result this test recorded for Cc1cc2c(cc1C)NC(=O)C(NC(=O)/C=C/c1ccccc1)C=N2 (configuration not stated) .
Reply: N

Task item: State the result this test recorded for COc1ccc(C2OC(c3ccncc3)=NN2C)cc1OC (configuration not stated) .
Reply: N

Task item: State the result this test recorded for "Clc1ccc(CCN2CCN(CCCc3ccccc3)CC2)cc1Cl" .
Reply: N

Task item: State the result this test recorded for "O=C1N=C(c2ccccc2)O/C1=C\c1ccccc1" .
Reply: N

Task item: State the result this test recorded for "COc1cc2nn(-c3ccccc3)nc2c2nonc12" .
Reply: N
